assay: small molecules captured by biotinylated probe aFGF10 – biochemical, small-molecule microarray, fluorescence 635/667, stem cell growth factor project, primary screen (AID 1071); details: higher = more signal;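 further: score merges 667 nm spot intensity and signal to noise from triplicate slides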
Note to self: values exactly at 0.005 are t. So composite z-score at or above 0.005 is t, below is f.

// below: answered compounds
{"columns": ["Compound", "Group label"],
 "data": [
  ["C=CCOC(=O)[C@@H]1[C@H]2C(=O)O[C@H](c3ccccc3)[C@H](c3ccccc3)N2[C@H](c2ccc(OCCOC(=O)[C@H]3C[C@H]4C(=O)NCC(=O)N4[C@H]3c3cccc(OCCO)c3)cc2)[C@@]12C(=O)Nc1ccc(I)cc12", "f"],
  ["COC(=O)[C@@]1(Cc2ccccc2)[C@H]2c3cc(C(=O)N(C)C)n(Cc4ccc(C(F)(F)F)nc4)c3C[C@H]2CN1C(=O)c1ccccc1", "t"],
  ["C=CCC(OC(C)=O)[C@@H]1[C@@H](N(Cc2cccc3ccccc23)C(=O)Cc2ccc(OC)cc2)c2cc(OCCCO)ccc2N1C(=O)Cc1ccc2ccccc2c1 (stereo partly specified)", "t"],
  ["C=CC[C@@]1(C(=O)OC)N=C(c2ccc(OCCCO)cc2)O[C@@H]1c1ccccc1N=[N+]=[N-]", "t"]
]}

(Q) # check: composite z-score of O=C1O[C@@H](c2ccccc2)[C@@H](c2ccccc2)N2[C@@H](c3ccccc3OCCO)[C@]3(C(=O)Nc4ccc(C#CCCO)cc43)[C@@H](C(=O)NC[C@H](O)c3ccccc3)[C@H]12 is greater than or equal to 0.005
(A) f

---

molecular target: Albumin (Bos taurus) (UniProt P02769); test: compounds binding labelled BSA control protein – biochemical, small-molecule microarray, Alexa647 label, 635/667 nm fluorescence, artefact control for SMM control protein annotation, profiling panel (AID 1118); settings: BSA-A647 binding, fluorescence 635 nm, higher = more signal;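 further: score merges 667 nm emission intensity and signal-to-noise per printed compound spot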
Sequence (P02769 whole entry, looked up): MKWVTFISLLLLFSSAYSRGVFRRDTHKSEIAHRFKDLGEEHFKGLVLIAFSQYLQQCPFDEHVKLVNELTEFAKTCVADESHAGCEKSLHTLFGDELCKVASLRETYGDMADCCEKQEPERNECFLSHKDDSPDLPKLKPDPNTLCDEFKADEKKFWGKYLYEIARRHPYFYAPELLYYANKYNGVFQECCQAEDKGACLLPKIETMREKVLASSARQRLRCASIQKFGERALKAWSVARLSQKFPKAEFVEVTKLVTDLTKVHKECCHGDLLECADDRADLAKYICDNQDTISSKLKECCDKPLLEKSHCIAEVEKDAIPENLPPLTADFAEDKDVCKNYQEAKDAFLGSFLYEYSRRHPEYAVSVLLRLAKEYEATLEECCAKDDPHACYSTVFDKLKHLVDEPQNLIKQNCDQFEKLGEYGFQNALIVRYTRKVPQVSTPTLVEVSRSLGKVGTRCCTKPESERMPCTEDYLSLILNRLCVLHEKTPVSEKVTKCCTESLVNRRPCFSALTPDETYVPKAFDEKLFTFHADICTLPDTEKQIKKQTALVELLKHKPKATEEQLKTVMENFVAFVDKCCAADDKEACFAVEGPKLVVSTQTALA
This listing pairs molecules with measured composite z-score.

Examples with their reported composite z-score follow.
{"columns": ["Molecule", "Readout label", "Observed value"],
 "data": [
  ["CCCc1cc2c(n1CCc1ccc(Cl)cc1)C(C)C1CN(C(=O)c3ccccc3)C(C)(C(=O)OC)C21 (configuration not stated)", "composite z-score", 1.03],
  ["COc1ccc([Si](C)(C)[C@H]2[C@H](CCO)O[C@@]3(C(=O)N(Cc4ccc(NC(=O)[C@H](C)O)cc4)c4ccccc43)[C@@H]2C)cc1", "composite z-score", 0.494],
  ["O=C1O[C@@H](c2ccccc2)[C@@H](c2ccccc2)N2[C@@H](c3ccc(OCCO)cc3)[C@]3(C(=O)Nc4ccc(C#CC5(O)CCCCCC5)cc43)[C@@H](C(=O)Nc3nc4ccccc4s3)[C@H]12", "composite z-score", 0.691]
]}

(Q) # lookup: composite z-score of CC(C)(C)N1CC=CC23O[C@@H]4C=CCCOC(=O)C4[C@H]2C(=O)N(CCCCCCO)[C@@H]3C1=O (some centres not stated)
(A) -0.188

(Q) # lookup: composite z-score of O=C1[C@H]2C=C(I)[C@H](C[C@@H]2c2ccccc2)[C@@]12CO2
(A) -0.406

(Q) # lookup: composite z-score of CN(C)CCCCNC(=O)[C@H]1C[C@H]2C(=O)N3CCC[C@H]3C(=O)N2[C@H]1c1cccc(OCCO)c1
(A) -0.115

(Q) # lookup: composite z-score of CC1CC/C=C\[C@H]2OC34C=CCN(c5ccc(Cl)cc5)C(=O)[C@H]3N(CCCCCCO)C(=O)[C@]4(C)C2C(=O)O1 (some centres not stated)
(A) -0.685

---

This listing pairs molecules with measured z-score.
assay: S6 kinase pathway phospho-S6 level changes – cell-based, A549, cytoblot, luminescence, serum-stimulated, primary screen (AID 1158); details: 5 h, higher = more signal;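 further: serum-stimulated A549 lung adenocarcinoma cells; signal is phosphorylated S6 detected by cytoblot immunostaining with HRP secondary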
Write no unit; give the number alone.

{"columns": ["Molecule", "z-score"],
 "data": [
  ["COC(=O)C[C@H]1O[C@@]2(C[C@@H]1[Si](C)(C)C)C(=O)N(C)c1ccccc12", 0.953]
]}

(Q) # lookup: z-score of COCCn1c(C(=O)N(C)C)cc2c1C[C@H]1CN(C(=O)c3ccccc3)[C@@](Cc3ccc(OC)cc3)(C(=O)OC)[C@@H]21
(A) -0.164

(Q) # lookup: z-score of CO[C@H]1O[C@H](CO)[C@@H](OC(=O)Nc2ccc3c(c2)OCO3)[C@H](OC(=O)Nc2ccccc2-c2ccccc2)[C@H]1OC(=O)Nc1ccccc1-c1ccccc1
(A) -0.311

(Q) # lookup: z-score of C=C(C)[C@@H]1CC=C(C(O)C2C=CC3C(=O)N(C)C(=O)C3N2Nc2ccc([N+](=O)[O-])cc2[N+](=O)[O-])CC1 (some centres undefined)
(A) -1.42

---

molecular target: Follistatin-related protein 3 (Homo sapiens) (UniProt O95633); assay: compounds binding follistatin-related protein 3 – biochemical, small-molecule microarray, 635 nm fluorescence, primary screen (AID 1105); conditions: FSTL3 binding, higher = more signal;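 further: score merges emission near 667 nm and signal to noise per printed spot across three slides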
Sequence (O95633 whole entry, looked up): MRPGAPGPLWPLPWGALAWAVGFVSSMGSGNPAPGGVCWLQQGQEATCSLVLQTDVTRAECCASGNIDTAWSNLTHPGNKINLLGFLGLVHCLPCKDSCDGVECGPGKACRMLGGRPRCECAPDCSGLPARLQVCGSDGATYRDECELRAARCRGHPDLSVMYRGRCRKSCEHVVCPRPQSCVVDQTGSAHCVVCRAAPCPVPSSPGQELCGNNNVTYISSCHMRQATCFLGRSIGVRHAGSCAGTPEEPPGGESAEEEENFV
Readout label: composite z-score
Write no unit; give the number alone.

Examples with their reported composite z-score follow.
{"columns": ["Compound", "Assay system", "composite z-score"],
 "data": [
  ["COCCOC(=O)N1C(=O)[C@@]2(c3cc(C#CCC(C(=O)OC)C(=O)OC)ccc31)[C@H](c1ccc(O)cc1)N1[C@H](c3ccccc3)[C@H](c3ccccc3)OC(=O)[C@H]1[C@@H]2C(=O)Nc1nc2ccccc2s1", "Follistatin-related protein 3 (Homo sapiens) (UniProt O95633)", 1.38],
  ["O=C1C[C@]2(c3ccc([N+](=O)[O-])cc3)C(=O)N(C3CC3)c3cc(CO)ccc3[C@H]2N1C1CCCCC1", "Follistatin-related protein 3 (Homo sapiens) (UniProt O95633)", -0.184],
  ["COc1ccc(C(O)C2C=CC3C(=O)N(C)C(=O)C3N2N(c2ccccc2)c2ccccc2)cc1 (stereo not drawn)", "Follistatin-related protein 3 (Homo sapiens) (UniProt O95633)", 0.585],
  ["C=CCC(OC(C)=O)[C@@H]1[C@@H](N(Cc2cccc3ccccc23)C(=O)Cc2ccc(OC)cc2)c2cc(OCCCO)ccc2N1C(=O)Cc1ccc2ccccc2c1 (stereo partly drawn)", "Follistatin-related protein 3 (Homo sapiens) (UniProt O95633)", 0.404],
  ["CCCCC(=C=CC[C@H](O)c1ccc(CO)o1)CCO", "Follistatin-related protein 3 (Homo sapiens) (UniProt O95633)", 0.484],
  ["Cc1ccc(S[C@]2(C(=O)NCC(F)(F)F)CC(=O)N(Cc3ccccc3C(F)(F)F)[C@@H]2c2ccc(CO)cc2)cc1", "Follistatin-related protein 3 (Homo sapiens) (UniProt O95633)", -1.51],
  ["O=C(O)[C@H](Cc1ccccc1)n1cc(C2(O)CCCCC2)nn1", "Follistatin-related protein 3 (Homo sapiens) (UniProt O95633)", 0.343]
]}

Now for another entry.
(Q) Observed composite z-score on Follistatin-related protein 3 (Homo sapiens) (UniProt O95633) for COC(=O)[C@@]1(Cc2ccc(OC)cc2)[C@H]2c3cc(C(=O)N(C)C)[nH]c3C[C@H]2CN1C(=O)c1ccccc1 , please.
(A) -0.273

---

assay: probe aLefty1 binding on compound microarray – biochemical, small-molecule microarray, 635/667 nm fluorescence, primary screen (AID 1153); conditions: higher = more signal;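 further: score merges spot fluorescence with signal-to-noise ratio from the scanned slide images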
This listing pairs compounds with measured composite z-score.
Write no unit; give the number alone.

{"columns": ["Compound", "Observed value"],
 "data": [
  ["CC(C)=CCCC=C(C)C(O)C1C=CC2C(=O)N(c3ccccc3)C(=O)C2N1Nc1ccc(C#N)cc1 (stereo unspecified)", 0.304]
]}

(Q) # lookup: composite z-score of COC(=O)[C@H](Cc1ccc(O)cc1)N[C@@H](/C=C/C1CC1)[C@H](O)Cc1ccccc1
(A) -0.275

---

assay: blood-stage malaria parasite viability loss – strain 3D7, DAPI fluorescence, 100 nL, primary screen (AID 1184);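 further: parasites grown inside human red blood cells in medium with human serum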; conditions: P. falciparum 3D7 growth, 3 d, higher = more signal
This listing pairs compounds with measured z-score.
Write no unit; give the number alone.

Examples with their reported z-score follow.
{"columns": ["Compound", "z-score"],
 "data": [
  ["C=C(COC)C(=O)CC[C@H](OC(=O)c1cccnc1)c1ccc(OCCO)cc1", -0.711],
  ["C=CCC(OC(C)=O)[C@@H]1[C@@H](N(Cc2cc3ccccc3o2)C(=O)c2cccc3ccccc23)c2cc(OCCCO)ccc2N1C(=O)c1ccc2ccccc2n1 (some centres not stated)", -1.99],
  ["COc1ccc(C#Cc2ccc3c(c2)[C@]2(C(=O)N3)[C@H](C(=O)O)[C@H]3C(=O)O[C@H](c4ccccc4)[C@H](c4ccccc4)N3[C@@H]2c2ccccc2OCCO)cc1", -2.15],
  ["COC(=O)[C@]1(CCC(=O)OC(C)(C)C)N=C(c2ccc(OCCCO)cc2)O[C@@H]1c1ccccc1N=[N+]=[N-]", -1.98],
  ["CC(C)=CCCC(C)=CC(O)C1C=CC2C(=O)NC(=O)C2N1Nc1ccccn1 (configuration not stated)", 0.563]
]}

(Q) # lookup: z-score of COc1ccc([Si](C)(C)[C@@H]2[C@@H](CC(=O)N3Cc4ccccc4C[C@H]3CO)O[C@]3(C(=O)N(Cc4cccc(N5CCOC5=O)c4)c4ccccc43)[C@H]2C)cc1
(A) -2.83

(Q) # lookup: z-score of [N-]=[N+]=Nc1ccccc1C[C@]1(C(=O)N2CCOCC2)N=C(c2ccc(OCCCO)cc2)O[C@H]1c1ccccc1N=[N+]=[N-]
(A) -2.32
